Assign TGI to each entry below.
test system: T-47D breast; test: NCI tumour cell line growth inhibition, 48 h

compound: COc1ccc(OC)c(-c2nc3sccn3c2/C=C2/C(=O)Nc3ccccc32)c1
property_label: TGI
result: > 49.4 µM
--
compound: CC1C(c2ccccc2O)c2cc3c(cc2OC1N1CCCC1)OCO3 (stereo not given)
property_label: TGI
result: > 100 µM

Parameters: items (list). Returns: TGI for each item.
1. COc1cc2cc(C(=O)N3CC(COS(C)(=O)=O)c4c3cc([N+](=O)[O-])c3ccccc43)[nH]c2c(OC)c1OC (stereo not given)
2. c1ccc(-c2cc(-c3cc(-c4ccccn4)[nH]n3)n[nH]2)nc1
3. CC1=CC(C)C(O)C(C)/C=C/C(O)C/C=C(/C)C(=O)CC(O)C(C)\C=C/C=C/C=C\C(=O)NC2=C(O)c3cc(C)c(O)c(c3C(=O)C2=O)C1=O (stereo not given)

Result:
> 31.6 µM
> 100 µM
> 100 µM

* * *

system: HCT-116 colon; test: NCI tumour cell line growth inhibition, 48 h
Where a SMILES comes first, the peptide text is derived from it. [ ]: non-standard residue; d: D form. 2Nal = N[CH](Cc1ccc2ccccc2c1)C(=O)O
property_label: TGI

compound: CC(=O)Nc1ccc(/C=c2\sc3nnc(/C=C/c4ccccc4)n3c2=O)cc1
TGI: > 50 µM

compound: O=S(=O)(Nc1ccccc1S(=O)(=O)c1ccccc1)c1ccccc1
TGI: > 100 µM

compound: Cc1ccc(S(=O)(=O)n2ccn3c(=O)cc(C)nc23)cc1
TGI: > 10 µM

compound: COc1cc2c[n+](C)c3c4ccccc4ccc3c2cc1OC
TGI: > 67.7 µM

compound: O=C(O)/C(=C\c1ccccc1)Cc1ccccc1
TGI: > 100 µM

Would you mind listing TGI for each of the following compounds?
1. CCOc1ccc(N=Cc2cc(OC)c(OC)c(OC)c2)cc1
2. Cc1c2n(c3ccccc13)CC1C2N(C)OC1(C)C (configuration not stated)
3. C(/COc1cccnc1)=N\NC1=NCCN1
4. COCCN1C2=CCCCC2=Nc2c(N)nc(N)nc21
5. CCCCCN(CCCCC)C(=O)[C@@H](CCC(=O)OCc1ccccc1)NC(=O)c1cc2ccccc2[nH]1
6. CC(NC(=O)C(N)Cc1ccccc1)C(=O)NC(Cc1ccc(O)cc1)C(=O)NC(Cc1c[nH]c2ccccc12)C(=O)NC(CCCCN)C(=O)NC(C(=O)NC(C)C(=O)NC(Cc1ccc2ccccc2c1)C(N)=O)C(C)C (configuration not stated) (H-FAYWKVA[2Nal]-NH2; configuration not given here)

Result:
1: > 100 µM; 2: > 100 µM; 3: > 100 µM; 4: > 100 µM; 5: > 100 µM; 6: > 100 µM

Ask: Need TGI, item Nc1cc(C(F)F)c(-c2nc(N3[C@@H]4CC[C@H]3COC4)nc(N3[C@@H]4CC[C@H]3COC4)n2)cn1
Result: > 100 µM

* * *

system: COLO 205 colon; experiment: NCI tumour cell line growth inhibition, 48 h
property_label: TGI

compound: COc1cc(OC)c(/C=N/N=C(\N)NO)c(OC)c1
subject_of_test: COLO 205 colon
TGI: > 100 µM

compound: COC(=O)C1=NN2c3ccccc3CN([C@@H](C)c3ccccc3)C(=O)[C@@H]2C1
subject_of_test: COLO 205 colon
TGI: > 100 µM

compound: COc1cc(/C=C2\NC(=O)N(/C=C3\C(=O)Oc4ccccc4C3=O)C2=O)ccc1O
subject_of_test: COLO 205 colon
TGI: > 100 µM

compound: CNC(=O)N(CCC#N)CCN(CCN(C(=O)NC)c1ccccc1)C(=O)NC
subject_of_test: COLO 205 colon
TGI: > 100 µM

Your task in this section: give TGI for each listed record.
1. CC(O[Si](C)(C)C(C)(C)C)[C@H](NC(=O)OCC(Cl)(Cl)Cl)C(=O)O (stereo partly specified)
2. C[n+]1c2ccccc2c(NC(CCC(N)=O)C(=O)O)c2ccccc21 (stereo unspecified)
3. CCC(=S)N(C)O
4. Nc1nc(Nc2ccc(Cl)cc2)sc1C(=O)c1cc2ccccc2oc1=O

Result:
> 100 µM
> 100 µM
> 79 µM
> 100 µM

State recorded TGI for all listed compounds.
1. Cc1cc(S(=O)(=O)Nc2nc(N)n(C)n2)c(S)cc1Cl
2. N#Cc1cccc(Nc2nccc(-c3cnn4ncccc34)n2)c1
3. N#Cc1ccc(-n2cnc(NC(=O)[C@H]3CCN(C#N)C3)c2)cc1

Result:
> 10 µM
0.00663 µM
1.93 µM
